Reference source: patent US20240307361A1

Experiment: Phenethylamine level in intestinal tissues and luminal content after oral gavage
Type: in vivo, mouse
Conditions: mouse, oral; Proximal colon, 0 min
quantity: concentration at 0 min (ng/g)
Quick reminder: number only, in ng/g, skip the unit.

Task: Entry NCCc1ccccc1 has what concentration at 0 min?
Output: 12000

====

Test: Phenethylamine level in intestinal tissues and luminal content after oral gavage
Type: in vivo, mouse
Details: mouse, luminal content of ileum, oral; Luminal content in ileum, 0 min
quantity: concentration at 0 min

Task: Entry NCCc1ccccc1 has what concentration at 0 min?
Output: 1670 ng/g

====

Assay: Phenethylamine level in intestinal tissues and luminal content after oral gavage
Type: in vivo, mouse
Details: mouse, oral; Ileum, 0 min
Excerpt: An Agilent 1290 Infinity II UPLC system coupled to a triple quadrupole (QQQ) 6470 mass spectrometer was used for targeted metabolomics profiling. A Waters BEH 2.1×50 mm C18 1.7 μm column with a pre-column was used. The mobile phase used in LC-MS-QQQ was solution A (water with 0.1% formic acid) and solution B (acetonitrile with 0.1% formic acid). […]
quantity: concentration at 0 min (ng/g)
Quick reminder: number only, in ng/g, skip the unit.

Task: Entry NCCc1ccccc1 [phenethylamine] has what concentration at 0 min?
Output: 240

====

Test: Phenethylamine level in intestinal tissues and luminal content after oral gavage
Assay type: in vivo, mouse
Conditions: mouse, luminal content of proximal colon, oral; Luminal content in proximal colon, 0 min
quantity: concentration at 0 min (ng/g)
Quick reminder: number only, in ng/g, skip the unit.

Task: Entry NCCc1ccccc1 [phenethylamine] has what concentration at 0 min?
Output: 3700

====

Assay: Phenethylamine level in intestinal tissues and luminal content after oral gavage
Type: in vivo, mouse
Details: mouse, oral; Ileum, 30 min
quantity: concentration at 30 min (ng/g)
Quick reminder: number only, in ng/g, skip the unit.

Task: Entry NCCc1ccccc1 [phenethylamine] has what concentration at 30 min?
Output: 8000

====

Assay: Phenethylamine level in intestinal tissues and luminal content after oral gavage
Assay type: in vivo, mouse
Settings: mouse, luminal content of ileum, oral; Luminal content in ileum, 15 min
quantity: concentration at 15 min (ng/g)
Quick reminder: number only, in ng/g, skip the unit.

Task: Entry NCCc1ccccc1 has what concentration at 15 min?
Output: 29700

====

Assay: Phenethylamine level in intestinal tissues and luminal content after oral gavage
Format: in vivo, mouse
Settings: mouse, oral; Proximal colon, 30 min
quantity: concentration at 30 min (ng/g)
Quick reminder: number only, in ng/g, skip the unit.

Task: Entry NCCc1ccccc1 has what concentration at 30 min?
Output: 38000

====

Experiment: Phenethylamine level in intestinal tissues and luminal content after oral gavage
Type: in vivo, mouse
Conditions: mouse, oral; Proximal colon, 15 min
quantity: concentration at 15 min (ng/g)
Quick reminder: number only, in ng/g, skip the unit.

Task: Entry NCCc1ccccc1 [phenethylamine] has what concentration at 15 min?
Output: 116000

====

Experiment: Phenethylamine level in intestinal tissues and luminal content after oral gavage
Type: in vivo, mouse
Conditions: mouse, luminal content of proximal colon, oral; Luminal content in proximal colon, 30 min
quantity: concentration at 30 min (ng/g)
Quick reminder: number only, in ng/g, skip the unit.

Task: Entry NCCc1ccccc1 [phenethylamine] has what concentration at 30 min?
Output: 58900
